Data origin: the supplement of paper PMC4206467

Test system: Perkinsus marinus PRA240
method summary: ATP content (proliferation) relative to DMSO control; higher = more parasite growth (less inhibition)
particulars: 20 µM; 4 days
ATP content reference
readout type: ATP content (%)

>>> print(df.to_string())
                                    molecule  readout_type  unit_descriptor  assay_value
 0   Oc1ccccc1CN1CCN(C(c2ccccc2)c2ccccc2)CC1   ATP content                %          128
 1  COc1cc2c3cc1Oc1c(OC)c(OC)cc4c1C(Cc1ccc(O)c(c1)Oc1ccc(cc1)CC3N(C)CC2)N(C)CC4 (stereo unspecified)   ATP content                %          144
 2                     CCCc1c(C)nc2ccccc2c1O   ATP content                %         28.8
 3   O=C(Nc1ccccc1O)c1ccc(-c2ccc(Cl)cc2Cl)o1   ATP content                %         82.5
 4  CCOc1ccccc1NC(=O)CN1CCN(C(=O)c2ccco2)CC1   ATP content                %         66.6
 5  CCN(CC)CCCNc1nc(-c2ccc(Cl)cc2)nc2ccccc12   ATP content                %         99.6
 6         CCOc1ccc(N2C(N)=NC(N)=NC2(C)C)cc1   ATP content                %          114
 7  COc1ccc(C)c2sc(N(Cc3cccnc3)C(=O)c3ccc(C#N)cc3)nc12   ATP content                %         87.4
 8  CC1CCN(Cc2c(O)ccc3cc(-c4nc5ccccc5s4)c(=O)oc23)CC1   ATP content                %          124
 9  Cc1[nH]c(-c2ccc(F)cc2)cc1C(=O)NC1CCN(Cc2ccccc2)CC1   ATP content                %          108
10  Cc1ccc(C(=O)c2oc3ccc4c(C)cc(=O)oc4c3c2C)cc1   ATP content                %          123
